# Target Or System: T1, B7-1 (human, UniProt P33681 35-242)
# T1 sequence (looked up): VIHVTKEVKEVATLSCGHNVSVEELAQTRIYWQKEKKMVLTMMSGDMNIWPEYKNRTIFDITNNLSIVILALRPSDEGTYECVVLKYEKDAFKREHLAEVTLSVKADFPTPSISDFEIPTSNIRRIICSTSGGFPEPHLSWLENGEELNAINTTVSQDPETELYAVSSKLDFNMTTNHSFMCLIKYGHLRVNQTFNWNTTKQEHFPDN
# Test Description: ELISA on coated protein (Table 9)

# Binder, binding result
measured = [
    ("chimeric anti-PD-1 antibody 76G5B3 (antibody, V domains shown, Purified from hybridoma of Harbour H2L2 mice: human variable regions, rat constant regions) VH: QVQLVESGGGVVQPGRSLRLSCAASGFTFSDYGFHWVRQAPGKGLEWVAVIWYDGSNEYYTDSVKGRFTISRDNSKNTLYLQMNSLRAEDTAMYFCVVNPFDYWGQGTLVTVSS VL: DIQMTQSPSSLSAFVGDRVTITCRASQGINHYLAWYQQKPGKAPNLLILAASTLLSGVPSRFGGRGSGTDFTLIISSLQPEDVATYYCQKYDSAPYTFGQGTKLEIK", "no binding"),
    ("chimeric anti-PD-1 antibody 223G6B5 (antibody, V domains shown, Purified from hybridoma of Harbour H2L2 mice: human variable regions, rat constant regions) VH: QVQLQESGPGLVKPSETLSLTCAVSGHSIRGSYFWGWIRQPPGRGLEWIGSIYHSGSTYTNPSLKSRATISVDTSKNQFSLKLNSVTAADTAVYYCARDLDIATTRDYWGQGTLVTVSS VL: DIQLTQSPSFLSASVGDRVTIICRASQGINNYLAWYQQKPGKAPKLLIYAASTLQSGVPSRFSGSGSGTEFTLTISSLQPEDFATYYCQQLDSYPRTFGQGTKVEIKR", "no binding"),
    ("chimeric anti-PD-1 antibody 32B5C7 (antibody, V domains shown, Purified from hybridoma of Harbour H2L2 mice: human variable regions, rat constant regions) VH: EVQLLESGGGLVQPGGSLRLSCAASGFTFSSYAMSWVRQAPGKGLEWVSTISGSGGTTYYADSVKGRFTISRDNSKNTLYLQMNSLRAEDTAVYYCTLTGDPDYWGQGTLVTVSS VL: EIVLTQSPATLSLSPGERATLSCRASQSVSSYLAWYQQKPGQAPRLLIYDASKRATGIPARFSGSGSGTDFTLTISSLEPEDFAVYYCQQRNNWPLTFGGGTKVEIK", "no binding"),
]
